Each entry below lists one item and its recorded CLint scaled at 5 μM value.
# run_description: Compound stability in rat liver microsomes
# Assay type: in vitro ADME
# cond: pH 7.4; rat liver microsomes; in vivo CLint extrapolated
# Method: Human or rat liver microsomes incubations were conducted in duplicate in polypropylene tubes. […] The concentrations of compounds in the incubation mixtures of human or rat liver microsomes were determined by a LC/MS/MS method. The ranges of the linearity in the concentration range were determined for each tested compounds. […]

compound	CLint scaled at 5 μM [mL/min/kg]
Cn1cc(Nc2ncc(Cl)c(N[C@@H]3COC4C3OC[C@@H]4NS(=O)(=O)CC(C)(F)F)n2)cn1 (stereo partly shown) [Ex. 38]	52.1
CNC(=O)N[C@H]1COC2C1OC[C@H]2Nc1nc(Nc2cnn(C)c2)ncc1Cl (stereo partly shown) [Ex. 1]	21.4
Cn1cc(Nc2ncc(Cl)c(N[C@H]3COC4C3OC[C@H]4NS(=O)(=O)N3CCCC3)n2)cn1 (stereo partly shown) [Ex. 6]	65.8
Cn1cc(Nc2ncc(Cl)c(N[C@@H]3COC4C3OC[C@@H]4N3CCCC3=O)n2)cn1 (stereo partly shown) [Ex. 22]	23.8
CC(O)CS(=O)(=O)N[C@H]1COC2C1OC[C@H]2Nc1nc(Nc2cnn(C)c2)ncc1Cl (stereo partly shown) [Ex. 44]	8
Cn1cc(Nc2ncc(Cl)c(N[C@@H]3COC4C3OC[C@@H]4Nc3ccc(C#N)nn3)n2)cn1 (stereo partly shown) [Ex. 3]	113
CC(CS(=O)(=O)N[C@H]1COC2C1OC[C@H]2Nc1nc(Nc2cnn(C)c2)ncc1Cl)C(F)(F)F (stereo partly shown) [Ex. 40]	126
Cn1cc(Nc2ncc(Cl)c(N[C@@H]3COC4C3OC[C@@H]4NS(=O)(=O)CC3CC3)n2)cn1 (stereo partly shown) [Ex. 25]	35.6
Cn1cc(Nc2ncc(Cl)c(N[C@@H]3COC4C3OC[C@@H]4N3CCCS3(=O)=O)n2)cn1 (stereo partly shown) [Ex. 12]	23.7
CC(CS(=O)(=O)N[C@H]1COC2C1OC[C@H]2Nc1nc(Nc2cnn(C)c2)ncc1Cl)C(F)F (stereo partly shown) [Ex. 42]	83.9
CC(C)S(=O)(=O)N[C@H]1COC2C1OC[C@H]2Nc1nc(Nc2cnn(C)c2)ncc1Cl (stereo partly shown) [Ex. 15]	27.1
CC(C)CS(=O)(=O)N[C@H]1COC2C1OC[C@H]2Nc1nc(Nc2cnn(C)c2)ncc1Cl (stereo partly shown) [Ex. 2]	36.9
Cn1cc(Nc2ncc(Cl)c(N[C@@H]3COC4C3OC[C@@H]4NS(=O)(=O)CC(F)(F)F)n2)cn1 (stereo partly shown) [Ex. 27]	44
CC(CF)CS(=O)(=O)N[C@H]1COC2C1OC[C@H]2Nc1nc(Nc2cnn(C)c2)ncc1Cl (stereo partly shown) [Ex. 37]	71.1
Cn1cc(Nc2ncc(Cl)c(N[C@@H]3COC4C3OC[C@@H]4NS(=O)(=O)C3CCOC3)n2)cn1 (stereo partly shown) [Ex. 20]	21.5
Cn1cc(Nc2ncc(Cl)c(N[C@@H]3COC4C3OC[C@@H]4NS(=O)(=O)CC3CCOC3)n2)cn1 (stereo partly shown) [Ex. 16]	23.4

---

pIC50: −log10 of the molar value.
These records show pIC50 for JAK1 (h) (Homo sapiens).

molecule	pIC50
CC(C)CS(=O)(=O)N[C@H]1COC2C1OC[C@H]2Nc1nc(Nc2cnn(C)c2)ncc1Cl (stereo partly drawn) [Ex. 2]	7.37
Cn1cc(Nc2ncc(Cl)c(N[C@@H]3COC4C3OC[C@@H]4NS(=O)(=O)CC3CCCC3)n2)cn1 (stereo partly drawn) [Ex. 21]	7.62
Cn1cc(Nc2ncc(Cl)c(N[C@@H]3COC4C3OC[C@@H]4NS(=O)(=O)CC(C)(C)C#N)n2)cn1 (stereo partly drawn) [Ex. 26]	7.03

---

# run_description: Pharmacokinetics after intravenous and oral administration in rats
# Format: in vivo
# cond: iv dosing, dose 1 mg/kg
measured_endpoint: Clearance (CL) after iv dosing (mL/min/kg)

compound	measure_unit	value
Cn1cc(Nc2ncc(Cl)c(N[C@@H]3COC4C3OC[C@@H]4NS(=O)(=O)CC(F)(F)F)n2)cn1 (stereo partly drawn) [Ex. 27]	mL/min/kg	28.8
CC(C)S(=O)(=O)N[C@H]1COC2C1OC[C@H]2Nc1nc(Nc2cnn(C)c2)ncc1Cl (stereo partly drawn) [Ex. 15]	mL/min/kg	23.2
Cn1cc(Nc2ncc(Cl)c(N[C@@H]3COC4C3OC[C@@H]4Nc3ccc(C#N)cn3)n2)cn1 (stereo partly drawn) [Ex. 23]	mL/min/kg	7
Cn1cc(Nc2ncc(Cl)c(N[C@@H]3COC4C3OC[C@@H]4N3CCCS3(=O)=O)n2)cn1 (stereo partly drawn) [Ex. 12]	mL/min/kg	59.8
Cn1cc(Nc2ncc(Cl)c(N[C@@H]3COC4C3OC[C@@H]4NS(=O)(=O)C(C)(C)C)n2)cn1 (stereo partly drawn) [Ex. 24]	mL/min/kg	29.3
CC(C)CS(=O)(=O)N[C@H]1COC2C1OC[C@H]2Nc1nc(Nc2cnn(C)c2)ncc1Cl (stereo partly drawn) [Ex. 2]	mL/min/kg	18.3
Cn1cc(Nc2ncc(Cl)c(N[C@@H]3COC4C3OC[C@@H]4NS(=O)(=O)C3CCCC3)n2)cn1 (stereo partly drawn) [Ex. 14]	mL/min/kg	33.3
Cn1cc(Nc2ncc(Cl)c(N[C@@H]3COC4C3OC[C@@H]4NS(=O)(=O)CC(C)(C)O)n2)cn1 (stereo partly drawn) [Ex. 41]	mL/min/kg	57.3
Cn1cc(Nc2ncc(Cl)c(N[C@@H]3COC4C3OC[C@@H]4NS(=O)(=O)c3ccc(F)cc3)n2)cn1 (stereo partly drawn) [Ex. 8]	mL/min/kg	38

---

# CLint scaled at 5 μM per record follows
# run_description: Compound stability in human liver microsomes
# Format: in vitro ADME
# cond: pH 7.4; human liver microsomes; in vivo CLint extrapolated

compound	measure_unit	CLint scaled at 5 μM
CC(C)S(=O)(=O)N[C@H]1COC2C1OC[C@H]2Nc1nc(Nc2cnn(C)c2)ncc1Cl (stereo partly shown) [Ex. 15]	mL/min/kg	12.1
Cn1cc(Nc2ncc(Cl)c(N[C@@H]3COC4C3OC[C@@H]4Nc3ccc(C#N)cn3)n2)cn1 (stereo partly shown) [Ex. 23]	mL/min/kg	29
O=S(=O)(CC1CC1)N[C@H]1COC2C1OC[C@H]2Nc1nc(Nc2cnn(C3CCNCC3)c2)ncc1Cl (stereo partly shown) [Ex. 35]	mL/min/kg	34
Cn1cc(Nc2ncc(Cl)c(N[C@H]3COC4C3OC[C@H]4NS(=O)(=O)N3CCCC3)n2)cn1 (stereo partly shown) [Ex. 6]	mL/min/kg	46.5

---

# target_of_assay: FLT3 (h) (Homo sapiens)
# Sequence (P36888 27-993): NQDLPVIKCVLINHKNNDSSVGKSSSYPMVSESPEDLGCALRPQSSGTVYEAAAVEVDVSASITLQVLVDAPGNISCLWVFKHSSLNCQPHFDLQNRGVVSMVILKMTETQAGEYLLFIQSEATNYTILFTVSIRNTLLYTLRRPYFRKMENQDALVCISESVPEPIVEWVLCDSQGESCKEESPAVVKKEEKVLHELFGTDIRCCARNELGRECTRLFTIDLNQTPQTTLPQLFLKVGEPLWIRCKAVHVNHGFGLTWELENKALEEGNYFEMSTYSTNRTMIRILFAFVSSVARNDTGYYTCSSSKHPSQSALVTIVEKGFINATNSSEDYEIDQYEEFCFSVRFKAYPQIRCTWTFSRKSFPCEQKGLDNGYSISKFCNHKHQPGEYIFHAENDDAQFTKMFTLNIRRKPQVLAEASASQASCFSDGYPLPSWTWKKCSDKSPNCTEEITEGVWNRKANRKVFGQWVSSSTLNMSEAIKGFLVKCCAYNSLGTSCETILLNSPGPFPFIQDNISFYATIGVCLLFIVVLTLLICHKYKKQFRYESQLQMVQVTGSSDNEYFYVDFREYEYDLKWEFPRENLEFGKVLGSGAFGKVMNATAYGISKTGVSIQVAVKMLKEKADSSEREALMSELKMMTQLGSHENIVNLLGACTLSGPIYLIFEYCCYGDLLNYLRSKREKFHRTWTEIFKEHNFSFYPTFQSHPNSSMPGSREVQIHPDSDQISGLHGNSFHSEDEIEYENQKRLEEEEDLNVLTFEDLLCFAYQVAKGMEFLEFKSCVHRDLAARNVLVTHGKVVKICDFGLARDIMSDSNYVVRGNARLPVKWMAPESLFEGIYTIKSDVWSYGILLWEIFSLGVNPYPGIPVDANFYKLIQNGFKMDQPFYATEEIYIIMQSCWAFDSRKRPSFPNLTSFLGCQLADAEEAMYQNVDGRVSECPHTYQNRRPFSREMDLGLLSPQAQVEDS
pIC50: −log10 of the molar value.

molecule	target_of_assay	pIC50
CC(C)CS(=O)(=O)N[C@H]1COC2C1OC[C@H]2Nc1nc(Nc2cnn(C)c2)ncc1Cl (stereo partly shown)	FLT3 (h) (Homo sapiens)	6.07

Hey, just so you know, these numbers are from patent US20170081338A1.
